assay: Therapeutic index, ratio of LD50 for ip dosed Mus musculus (mouse) to ED50 for protection against pentylenetetrazol-induced seizures in ip dosed mouse
Type: organism-based
test.conditions: in vivo, read-out: Ratio LD50/ED50
assay.endpoint: selectivity ratio
Please respond with just the number, no unit label.

Please review the following examples before continuing.
| molecule | assay.endpoint | numeric.readout |
| --- | --- | --- |
| CSC(=S)NNC(=O)COc1cccc2c(=O)n(-c3ccccc3C)c(C)nc12 | selectivity ratio | 3.34 |
| Cc1ccccc1-n1c(C)nc2c(OCC(=O)NN)cccc2c1=O | selectivity ratio | 10.2 |
| Cc1ccccc1-n1c(C)nc2ccccc2c1=O [METHAQUALONE] | selectivity ratio | 1.4 |

Q: Which value of selectivity ratio has been reported for CCOC(=O)NNC(=O)COc1cccc2c(=O)n(-c3ccccc3C)c(C)nc12 in the records?
A: 1.51
